# system: full length spike (S) protein of SARS-CoV-2 (SARS-CoV-2, UniProt P0DTC2 14-1273)
# experiment-description: cell-based or functional assay
Values of Neutralizing activity (%) Mean at 16.66667 µg/ml greater than or equal to 70% map to fulfilled; values below map to not fulfilled.

The examples below pair each entry with its known result.
binder	group
P2B-2G11 (antibody, V domains shown) VH: EVQLVESGGGLVQPGRSLRLSCAASGFTFDDYAMHWVRQAPGKGLEWVSGISWNGGIIGYADSVKGRFTISRDNAKTSLYLQMNSLKPEDTALYYCAKVAGRGDYDYYYGMDVWGQGTTVTVSS VL: QSVLTQPPSVSGAPGQRVTISCTGSSSNIGAGYDVHWYQQLPGTAPKLLIYGNNNRPSGVPDRFSGSKSGTSASLAITGLQAEDEADYYCQSYDSSLSGSVFGGGTKLTVLG	not fulfilled
P2A-1A9 (antibody, V domains shown) VH: EVQLVESGGGLVQPGRSLRLSCAASGFTFDDYAMHWVRQVPGKGLEWVSGISWNGGIIGYADSVKGRFTISRDNAKTSLYLQMNSLRAEDTALYYCAKVAGRGDYDYYYGMDVWGQGTTVTVSS VL: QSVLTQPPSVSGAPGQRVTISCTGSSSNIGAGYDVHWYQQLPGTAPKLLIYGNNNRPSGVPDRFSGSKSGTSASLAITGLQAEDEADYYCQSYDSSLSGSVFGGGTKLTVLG	not fulfilled
P2B-2G4 (antibody, V domains shown) VH: QVQLVESGGGVVQPGRSLRLSCAASGFTFSSYGMHWVRQAPGKGLEWVAVIWYDGSNKYYADSVKGRFTISRDNSKNTLYLQMNSLRAEDTAVYYCARGAAMVWLDYWGQGTLVTVSS VL: QSALTQPRSVSGSPGQSVTISCTGTSSDVGGYNYVSWYQQHPGKAPKLMIYDVSKRPSGVPDRFSGSKSGNTASLTISGLQAEDEADYYCCSYAGSYTFVVFGGGTKLTVLG	not fulfilled

Item P2A-1B3 (antibody, V domains shown) VH: EVQLVESGGGLVQPGGSLRLSCVASGFSFNRYSMNWLRQTPRKGLEWLSYISASGNTIYYADSVRGRFTTSRDNAKNTLYLQMNSLRDDDTAVYFCARPAMVREGTYNWFDPWGQGTLVTVSS VL: EIVLTQSPGTLSLSPGERATLSCRASQSVSNDYLAWYQQKPGQAPRLLIYYASSRATGIPDRFSGSGSGTDFTLTISRLEPGDSAVYYCQQYGDSPPITFGQGTRLEIKR with Neutralizing activity (%) Mean at 16.66667 µg/ml of 70% or above?
not fulfilled

Decide: Neutralizing activity (%) Mean at 16.66667 µg/ml of P2B-2F6 (antibody, V domains shown) VH: QVQLQESGPGLVKPSETLSLTCTVSGYSISSGYYWGWIRQPPGKGLEWIGSIYHSGSTYYNPSLKTRVTISVDTSKNQFSLKLSSVTAADTAVYYCARAVVGIVVVPAAGRRAFDIWGQGTMVTVSS VL: QSALTQPPSASGSPGQSVTISCTGTSSDVGGYNYVSWYQQHPGKAPKLMIYEVSKRPSGVPDRFSGSKSGNTASLTVSGLQAEDEADYYCSSYAGSNNLVFGGGTKLTVLG >= 70%?
fulfilled

API: above_or_equal(metric=Neutralizing activity (%) Mean at 16.66667 µg/ml, cutoff=70%) for item P2A-1A8 (antibody, V domains shown) VH: EVQLVESGGDLVQPGRSLRLSCAASGFAFDDYAMHWVRQAPGKGLEWVSGSTWNSGTIAYADSVKGRFTISRDNAKKSLYLQMNSLRTEDTALYYCAKLGGYSDYDYPRPGDHYYGLDVWGQGTTVTVSS VL: QSALTQPASVSGSPGQSITISCTGTSSDVGSYNLVSWYQQHPGKVPKLLIYDVNKRPSGISNRFSGSKSGNTASLTISGLQAEDEADYYCRSYTDSNTYVFGTGTKVTVLG
not fulfilled
